We begin with a simple list: items and their reported pIC50.
biological target: MDMX–p53 (Homo sapiens); construct: host or cells: in vitro coupled T7 transcription and rabbit reticulocyte lysate translation; assay: MDMX–p53 ELISA binding assay; conditions: Table 3; n = 3 (c n = 1); read-out: MDMX IC50
pIC50: −log10 of the molar value.
Endpoint: pIC50

| Molecule | Inequality Symbol | Number |
| --- | --- | --- |
| O=C(O)C(=Cc1cc(-c2ccccc2)n(-c2ccc(Cl)cc2)c1-c1ccccc1)C(=O)O [Compound 10b] | < | 4.30 |
| O=C(NCCO)C(=Cc1cc(-c2ccccc2)n(-c2ccc(Cl)cc2)c1-c1ccccc1)C(=O)NCCO [Compound 10e] | = | 4.38 |
| NC(=O)C(=Cc1cc(-c2ccccc2)n(-c2ccc(Cl)cc2)c1-c1ccccc1)C(N)=O [Compound 10c] | = | 4.52 |
| COC(=O)C(=Cc1cc(-c2ccccc2)n(-c2ccc(Cl)cc2)c1-c1ccccc1)C(=O)OC [Compound 10a] | < | 4.30 |
| CNC(=O)C(=Cc1cc(-c2ccccc2)n(-c2ccc(Cl)cc2)c1-c1ccccc1)C(=O)NC [Compound 10d] | = | 4.52 |
| O=C(O)/C=C/c1cc(-c2ccccc2)n(-c2ccc(Cl)cc2)c1-c1ccccc1 [Compound 10f] | < | 4.30 |

----------
Molecular target: MDMX–p53 (Homo sapiens)
Construct: host or cells: in vitro coupled T7 transcription and rabbit reticulocyte lysate translation
Sequence (O15151 1-490): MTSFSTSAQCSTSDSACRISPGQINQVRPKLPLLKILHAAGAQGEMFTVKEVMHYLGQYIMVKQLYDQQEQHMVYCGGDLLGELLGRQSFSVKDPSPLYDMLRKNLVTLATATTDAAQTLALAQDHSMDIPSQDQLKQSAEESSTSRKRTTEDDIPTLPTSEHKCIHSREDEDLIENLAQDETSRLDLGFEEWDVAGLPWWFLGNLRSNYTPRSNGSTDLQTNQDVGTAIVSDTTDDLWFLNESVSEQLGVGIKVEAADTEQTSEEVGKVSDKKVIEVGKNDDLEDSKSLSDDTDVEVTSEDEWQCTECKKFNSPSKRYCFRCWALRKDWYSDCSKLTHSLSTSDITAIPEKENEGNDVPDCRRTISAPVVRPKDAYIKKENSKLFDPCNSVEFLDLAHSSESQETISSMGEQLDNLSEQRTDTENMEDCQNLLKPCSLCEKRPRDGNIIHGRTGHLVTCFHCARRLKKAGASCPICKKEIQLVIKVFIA
Assay: MDMX–p53 ELISA binding assay
# IC50 per record follows
Endpoint: IC50 (µM)

| Record Smiles | Endpoint | Number |
| --- | --- | --- |
| CN1C(=O)C(=Cc2cc(-c3ccccc3)n(-c3ccc(Cl)cc3)c2-c2ccccc2)C(=O)NC1=S | IC50 | 28 |
| CN1C(=O)NC(=O)C(=Cc2cc(-c3ccccc3)n(-c3ccc(Br)cc3)c2-c2ccccc2)C1=O | IC50 | 35 |

----------
target: MDM2–p53 (Homo sapiens, UniProt Q00987); assay: MDM2–p53 ELISA protein–protein binding assay; conditions: Table 3; n = 3 (b n = 5); read-out: MDM2 IC50
Sequence (Q00987 whole entry): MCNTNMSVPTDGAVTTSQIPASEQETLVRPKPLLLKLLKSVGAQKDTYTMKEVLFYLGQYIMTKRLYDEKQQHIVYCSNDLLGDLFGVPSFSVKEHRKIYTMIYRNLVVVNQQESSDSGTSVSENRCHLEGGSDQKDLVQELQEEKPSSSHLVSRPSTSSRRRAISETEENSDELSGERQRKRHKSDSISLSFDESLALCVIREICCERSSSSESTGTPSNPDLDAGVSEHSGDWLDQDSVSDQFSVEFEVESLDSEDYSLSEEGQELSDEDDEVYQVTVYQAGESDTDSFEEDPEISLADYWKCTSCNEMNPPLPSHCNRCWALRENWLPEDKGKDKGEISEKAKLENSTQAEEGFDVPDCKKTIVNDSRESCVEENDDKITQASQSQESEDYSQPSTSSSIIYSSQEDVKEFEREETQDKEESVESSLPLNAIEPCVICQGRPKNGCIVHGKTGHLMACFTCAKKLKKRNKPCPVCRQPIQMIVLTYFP
pIC50: −log10 of the molar value.

| Compound | Target Entity | Inequality Symbol | pIC50 |
| --- | --- | --- | --- |
| NC(=O)C(=Cc1cc(-c2ccccc2)n(-c2ccc(Cl)cc2)c1-c1ccccc1)C(N)=O [Compound 10c] | MDM2–p53 (Homo sapiens, UniProt Q00987) | = | 5.60 |
| COC(=O)C(=Cc1cc(-c2ccccc2)n(-c2ccc(Cl)cc2)c1-c1ccccc1)C(=O)OC [Compound 10a] | MDM2–p53 (Homo sapiens, UniProt Q00987) | < | 4.30 |
| O=C(O)C(=Cc1cc(-c2ccccc2)n(-c2ccc(Cl)cc2)c1-c1ccccc1)C(=O)O [Compound 10b] | MDM2–p53 (Homo sapiens, UniProt Q00987) | = | 5.54 |
| O=C(O)/C=C/c1cc(-c2ccccc2)n(-c2ccc(Cl)cc2)c1-c1ccccc1 [Compound 10f] | MDM2–p53 (Homo sapiens, UniProt Q00987) | = | 4.77 |
| CC1(C)OC(=O)C(=Cc2cc(-c3ccccc3)n(-c3ccc(Br)cc3)c2-c2ccccc2)C(=O)O1 | MDM2–p53 (Homo sapiens, UniProt Q00987) | = | 4.77 |
| CNC(=O)C(=Cc1cc(-c2ccccc2)n(-c2ccc(Cl)cc2)c1-c1ccccc1)C(=O)NC [Compound 10d] | MDM2–p53 (Homo sapiens, UniProt Q00987) | = | 5.12 |
| O=C(NCCO)C(=Cc1cc(-c2ccccc2)n(-c2ccc(Cl)cc2)c1-c1ccccc1)C(=O)NCCO [Compound 10e] | MDM2–p53 (Homo sapiens, UniProt Q00987) | = | 4.82 |
| CC1(C)OC(=O)C(Cc2cc(-c3ccccc3)n(-c3ccc(Br)cc3)c2-c2ccccc2)C(=O)O1 | MDM2–p53 (Homo sapiens, UniProt Q00987) | = | 5.54 |

----------
biological target: MDM2–p53 (Homo sapiens); assay: MDM2–p53 ELISA protein–protein binding assay; conditions: read-out: MDM2 IC50
Endpoint: IC50 (nM)

| Compound | Value Unit | Number |
| --- | --- | --- |
| O=C1NC(=S)NC(=O)C1=Cc1cc(-c2ccccc2)n(-c2ccc([N+](=O)[O-])cc2)c1-c1ccccc1 [Compound 4t] | nM | 170 |
| Cc1cc(C=C2C(=O)N(c3ccccc3)C(=S)N(c3ccccc3)C2=O)c(C)n1-c1ccc(Br)cc1 [Compound 4h] | nM | 199 |
| O=C1NC(=O)C(=Cc2cc(-c3ccccc3)n(-c3ccc(Cl)cc3)c2-c2ccccc2)C(=O)N1 [Compound 4m] | nM | 300 |
| CCN1C(=O)C(=Cc2cc(-c3ccccc3)n(-c3ccc(Cl)cc3)c2-c2ccccc2)C(=O)N(CC)C1=S [Compound 4u] | nM | 300 |
| O=C1NC(=O)C(=Cc2cc(-c3ccccc3)n(-c3ccc([N+](=O)[O-])cc3)c2-c2ccccc2)C(=O)N1 [Compound 4s] | nM | 150 |
| Cc1cc(C=C2C(=O)NC(=S)NC2=O)c(C)n1-c1ccc(Cl)cc1 [Compound 4a] | nM | 720 |
| O=C1NC(=S)NC(=O)C1=Cc1cc(-c2ccccc2)n(-c2ccc(Cl)cc2)c1-c1ccccc1 [Compound 4c] | nM | 110 |
| O=C1NC(=S)NC(=O)C1=Cc1cc(C2CC2)n(-c2ccc(Cl)cc2)c1-c1ccccc1 [Compound 11f] | nM | 2100 |
| O=C1NC(=S)N(c2cccc(Cl)c2)C(=O)/C1=C/c1cc(-c2ccccc2)n(-c2ccc(Cl)cc2)c1-c1ccccc1 [Compound 4e] | nM | 163 |
| CCN1C(=O)C(=Cc2cc(-c3ccccc3)n(-c3ccc(Br)cc3)c2-c2ccccc2)C(=O)N(CC)C1=S [Compound 4w] | nM | 260 |
| Cc1cc(/C=C2\C(=O)NC(=S)N(c3ccccc3)C2=O)c(C)n1-c1ccc(Cl)cc1 [Compound 4b] | nM | 3300 |
| CC(C)(C)c1cc(C=C2C(=O)NC(=S)NC2=O)c(-c2ccccc2)n1-c1ccc(Cl)cc1 [Compound 11c] | nM | 1100 |

----------
biological target: MDM2–p53 (Homo sapiens, UniProt Q00987); experiment: MDM2–p53 ELISA protein–protein binding assay; conditions: read-out: MDM2 IC50

| Compound | IC50 |
| --- | --- |
| O=C1NC(=S)NC(=O)C1=Cc1cc(-c2ccccc2)n(-c2ccc(Cl)cc2)c1C1CC1 [Compound 11d] | 1600 nM |
| COc1ccc(-n2c(-c3ccccc3)cc(C=C3C(=O)NC(=O)NC3=O)c2-c2ccccc2)cc1 | 1900 nM |
| Cc1ccc(-n2c(C)cc(/C=C3\C(=O)NC(=S)N(c4ccccc4)C3=O)c2C)cc1 | 8400 nM |
| O=C1NC(=S)NC(=O)C1=Cc1cc(-c2ccccc2)n(-c2ccc(Br)cc2)c1C1CC1 [Compound 11e] | 1600 nM |
| CC(C)(C)c1cc(C=C2C(=O)NC(=S)NC2=O)c(-c2ccccc2)n1-c1ccc(Br)cc1 [Compound 11b] | 760 nM |
| Cc1ccc(-n2c(C)cc(C=C3C(=O)NC(=S)NC3=O)c2C)cc1 | 4700 nM |
| O=C1NC(=O)C(=Cc2cc(-c3ccccc3)n(-c3ccc(Br)cc3)c2-c2ccccc2)C(=O)N1 | 180 nM |
| CCN1C(=O)C(=Cc2cc(-c3ccccc3)n(-c3ccc(Br)cc3)c2-c2ccccc2)C(=O)N(CC)C1=O | 890 nM |
| N#Cc1ccc(-n2c(-c3ccccc3)cc(C=C3C(=O)NC(=O)NC3=O)c2-c2ccccc2)cc1 | 4700 nM |
| CCOC(=O)c1ccc(-n2c(-c3ccccc3)cc(C=C3C(=O)NC(=S)NC3=O)c2-c2ccccc2)cc1 | 700 nM |
| CC(C)(C)c1ccc(-n2c(-c3ccccc3)cc(C=C3C(=O)NC(=O)NC3=O)c2-c2ccccc2)cc1 | 1900 nM |
| N#Cc1ccc(-n2c(-c3ccccc3)cc(C=C3C(=O)NC(=S)NC3=O)c2-c2ccccc2)cc1 | 200 nM |
| O=C1NC(=S)NC(=O)C1=Cc1cc(C2CC2)n(-c2ccc(Br)cc2)c1-c1ccccc1 [Compound 11g] | 2200 nM |
| Cc1ccc(N2C(=O)/C(=C\c3cc(-c4ccccc4)n(-c4ccc(Cl)cc4)c3-c3ccccc3)C(=O)N(c3ccccc3)C2=S)cc1C | 256 nM |
| O=C1NC(=S)N(c2ccccc2)C(=O)/C1=C/c1cc(-c2ccccc2)n(-c2ccc(Cl)cc2)c1-c1ccccc1 | 230 nM |
